# IC50 values compiled below
Molecular target: hTRPV3 (Homo sapiens (Human), UniProt Q8NET8)
Sequence (Q8NET8 whole entry): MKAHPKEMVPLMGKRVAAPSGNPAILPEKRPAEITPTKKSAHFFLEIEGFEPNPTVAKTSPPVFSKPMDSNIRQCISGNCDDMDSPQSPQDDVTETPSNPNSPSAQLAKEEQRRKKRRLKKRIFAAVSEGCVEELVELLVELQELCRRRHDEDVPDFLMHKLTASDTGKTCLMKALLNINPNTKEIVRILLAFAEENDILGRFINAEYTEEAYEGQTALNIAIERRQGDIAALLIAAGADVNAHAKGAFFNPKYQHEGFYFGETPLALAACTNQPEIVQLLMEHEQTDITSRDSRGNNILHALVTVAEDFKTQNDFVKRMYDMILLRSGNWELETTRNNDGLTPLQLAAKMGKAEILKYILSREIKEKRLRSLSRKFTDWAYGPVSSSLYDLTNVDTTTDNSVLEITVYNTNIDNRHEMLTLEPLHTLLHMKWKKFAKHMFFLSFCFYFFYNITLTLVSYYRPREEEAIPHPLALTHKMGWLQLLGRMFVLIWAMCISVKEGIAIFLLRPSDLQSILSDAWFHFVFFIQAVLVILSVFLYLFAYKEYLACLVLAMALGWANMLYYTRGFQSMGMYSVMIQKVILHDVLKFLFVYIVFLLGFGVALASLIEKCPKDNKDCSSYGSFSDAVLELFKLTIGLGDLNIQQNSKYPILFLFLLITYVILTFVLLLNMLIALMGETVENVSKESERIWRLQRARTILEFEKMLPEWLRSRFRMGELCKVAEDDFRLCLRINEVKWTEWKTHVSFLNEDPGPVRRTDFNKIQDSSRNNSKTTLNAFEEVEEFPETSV
Experiment: Whole-cell patch clamp, hTRPV3 Phase 1 / Phase 2 currents
Assay type: cell-based
Settings: Phase 1 current, inward, whole-cell patch clamp; read-out: hTRPV3 Patch P1 Inwd

Consider the following illustrative entries.
>>> df
                                   molecule  recorded_result
0  OCc1nc(-c2ncccn2)ccc1N1CC[C@H](Oc2ccc(C(F)(F)F)cn2)C1        > 1000 nM
1  CCc1ccccc1Oc1ccc(CO)c(N2CC[C@H](Oc3ncccc3Cl)C2)c1     10 to 100 nM
2  Cc1ccccc1C(O)c1ccc(N2CC[C@H](Oc3ncccc3Cl)C2)c(CO)c1 (stereo partly drawn)   100 to 1000 nM

State the recorded IC50 for this entry: O=C(c1ccc(C(F)(F)F)cn1)N1CCC(c2ccc(-c3ccccc3C3CC3)cc2CO)C1 (stereo not drawn)
10 to 100 nM

State the recorded IC50 for this entry: OCCc1cc(C(O)c2ccc(Cl)cc2)ccc1N1CC[C@H](Nc2ccc(F)cn2)C1 (stereo partly drawn)
> 1000 nM

---

Biological target: hTRPV3 (Homo sapiens (Human), UniProt Q8NET8)
Experiment: Whole-cell patch clamp, hTRPV3 Phase 1 / Phase 2 currents
Type: cell-based
Conditions: Phase 1 current; read-out: hTRPV3 (nM) (Phase 1)
endpoint label: IC50

Consider the following illustrative entries.
>>> print(df.to_string())
                                   molecule                         system_under_test  endpoint_label  recorded_result
0  OCCc1cc(C(O)c2cccc(Cl)c2)ccc1N1CC[C@H](Oc2ncccc2Cl)C1 (some centres unmarked)  hTRPV3 (Homo sapiens (Human), UniProt Q8NET8)            IC50          3100 nM
1  OCc1ccc(-c2ccccc2Cl)cc1N1CC[C@H](Oc2ncccc2Cl)C1  hTRPV3 (Homo sapiens (Human), UniProt Q8NET8)            IC50           737 nM
2  OCc1cc(Oc2ccccc2F)ccc1N1CC[C@H](Oc2ccccn2)C1  hTRPV3 (Homo sapiens (Human), UniProt Q8NET8)            IC50           207 nM
3  CCc1ccccc1Oc1ccc(CO)c(N2CC[C@H](Oc3ccc(C(F)(F)F)cn3)C2)c1  hTRPV3 (Homo sapiens (Human), UniProt Q8NET8)            IC50          62.1 nM
4  OCCc1cc(C(O)c2cccc(F)c2)ccc1N1CC[C@H](Oc2ncccc2Cl)C1 (some centres unmarked)  hTRPV3 (Homo sapiens (Human), UniProt Q8NET8)            IC50         ~1920 nM
5  Cc1ccccc1C(=O)c1ccc(N2CC[C@H](Oc3ncccc3F)C2)c(CO)c1  hTRPV3 (Homo sapiens (Human), UniProt Q8NET8)            IC50           296 nM
6  OCc1cc(-c2ccccc2C(F)(F)F)ccc1N1CC[C@H](Oc2ccc(C(F)(F)F)cn2)C1  hTRPV3 (Homo sapiens (Human), UniProt Q8NET8)            IC50          20.4 nM

Now look at this entry.
State the recorded IC50 for this entry: "NC(=O)c1cc(C(=O)c2ccccc2)ccc1N1CC[C@H](Oc2ccc(C(F)(F)F)cn2)C1"
1540 nM

---

# pIC50 values compiled below
Target: hTRPV3 (Homo sapiens (Human), UniProt Q8NET8)
Test: Whole-cell patch clamp, hTRPV3 Phase 1 / Phase 2 currents
Assay type: cell-based
Details: Phase 2 current, inward, whole-cell patch clamp; read-out: hTRPV3 Patch P2 Inwd
pIC50: −log10 of the molar value.

Consider the following illustrative entries.
>>> print(df.to_string())
                                   compound                         system_under_test  recorded_result
0  NC(=O)c1cc(-c2ccccn2)ccc1N1CC[C@H](Nc2ccc(C(F)(F)F)cn2)C1  hTRPV3 (Homo sapiens (Human), UniProt Q8NET8)           < 6.00
1  CCc1ccccc1-c1ccc(N2CC[C@H](Oc3ncccc3C)C2)c(CO)n1  hTRPV3 (Homo sapiens (Human), UniProt Q8NET8)           < 6.00
2  NC(=O)c1cc(-c2ccccc2)ccc1N1CC[C@H](Nc2ccc(C(F)(F)F)cn2)C1  hTRPV3 (Homo sapiens (Human), UniProt Q8NET8)           < 6.00

Now look at this entry.
State the recorded pIC50 for this entry: CC(C)c1ccccc1Oc1ccc(C2CCN(C(=O)c3ccc(F)cn3)C2)c(CO)c1 (stereo not shown)
7.00 to 8.00

---

# IC50 values compiled below
Target: hTRPV3 (Homo sapiens (Human), UniProt Q8NET8)
Assay: Whole-cell patch clamp, hTRPV3 Phase 1 / Phase 2 currents
Assay type: cell-based
Conditions: Phase 1 current; read-out: hTRPV3 (nM) (Phase 1)

Consider the following illustrative entries.
                                   molecule  endpoint_label  recorded_result
0  N#Cc1cccc(C(O)c2ccc(N3CC[C@H](Oc4ncccc4Cl)C3)c(CCO)c2)c1 (stereo partly shown)            IC50        > 3200 nM
1  NC(=O)c1cc(C(O)c2ccccc2)ccc1N1CC[C@H](Oc2ncccc2Cl)C1 (stereo partly shown)            IC50          2980 nM
2  NC(=O)c1cc(-c2ccccc2)ccc1N1CC[C@H](Oc2ccc(C(F)(F)F)cn2)C1            IC50           285 nM

Now look at this entry.
State the recorded IC50 for this entry: "CC(C)c1ccccc1Oc1ccc(N2CC[C@H](Oc3ncccc3Cl)C2)c(CO)c1"
2.01 nM

---

Target: hTRPV3 (Homo sapiens (Human))
Assay: Whole-cell patch clamp, hTRPV3 Phase 1 / Phase 2 currents
Format: cell-based
Settings: Phase 1 current; read-out: hTRPV3 (nM) (Phase 1)
endpoint label: IC50 (nM)
Just the number in nM, nothing appended.

>>> print(df.to_string())
                                   molecule  recorded_result
0  Cc1ccc(O[C@H]2CCN(c3ccc(-c4ccccc4CN(C)C(=O)OC(C)(C)C)nc3CO)C2)nc1 [Compound 1-258]              276
1  NC(=O)c1cc(C(F)(F)F)ccc1N1CC[C@@H](Oc2ccc(C(F)(F)F)cn2)C1 [Compound 1-84]              631
2  O=C(c1ccc(N2CC[C@H](Oc3ncccc3Cl)C2)c(CO)c1)c1ccccc1Cl [Compound 1-263]              444
3  Cc1cccnc1O[C@H]1CCN(c2ccc(-c3ccccc3Cl)cc2C(C)O)C1 (some centres unmarked) [Compound 1-172]              882
4  COc1ccc(Oc2ccc(N3CC[C@H](Oc4ccccn4)C3)c(CO)c2)cc1 [Compound 1-302]              282
5  Cc1ccc(Oc2ccc(N3CC[C@H](Oc4ncccc4Cl)C3)c(CO)c2)cc1 [Compound 1-250]             8.42

Now look at this entry.
State the recorded IC50 for this entry: CC(O)c1cc(-c2ccccc2)ccc1N1CC[C@H](Oc2ccc(C(F)(F)F)cn2)C1 (some centres unmarked) [Compound 1-121]
102

---

Biological target: hTRPV3 (Homo sapiens (Human), UniProt Q8NET8)
Assay: Whole-cell patch clamp, hTRPV3 Phase 1 / Phase 2 currents
Format: cell-based
Details: Phase 1 current; read-out: hTRPV3 (nM) (Phase 1)
endpoint label: log10(IC50) (log10 of the value in nM)
Field: value | Transform: log10 | Quantity: IC50 | Unit: nM

Consider the following illustrative entries.
                                   compound  recorded_result
0  OCc1cc(Oc2cccc(Cl)c2)ccc1N1CC[C@H](Oc2ncccc2Cl)C1 [Compound 1-248]             1.09
1  OCc1cc(Oc2ccccc2)ccc1N1CC[C@H](Nc2ncccc2Cl)C1 [Compound 1-381]             1.37
2  COC(C)c1ccccc1Oc1ccc(N2CC[C@H](Oc3ccccn3)C2)c(CCO)c1 (some centres unmarked) [Compound 1-357]             2.49
3  CCc1ccccc1C(O)c1ccc(N2CC[C@H](Oc3ncccc3Cl)C2)c(CO)c1 (some centres unmarked) [Compound 1-260]             3.50
4  Cc1ccccc1Oc1ccc(CO)c(N2CC[C@H](Oc3ccc(C(F)(F)F)cn3)C2)c1 [Compound 1-230]             2.30
5  OCCc1cc(Oc2ccccc2F)ccc1N1CC[C@H](Oc2ncccc2F)C1 [Compound 1-313]             1.86
6  OCc1cc(Br)ccc1N1C[C@@H](O)[C@H](Oc2ccc(C(F)(F)F)cn2)C1 [Compound 1-284]             3.21
7  CCCc1ccccc1Oc1ccc(N2CC[C@H](Oc3ncccc3Cl)C2)c(CO)c1 [Compound 1-266]             0.42
8  CCc1ccccc1-c1ccc(N2CC[C@H](Oc3ncccc3F)C2)c(CO)n1 [Compound 1-204]             3.43
9  Cc1ccc(O[C@H]2CCN(c3ccc(-c4ccccc4C)nc3CCO)C2)nc1 [Compound 1-200]             2.85

Now look at this entry.
State the recorded log10(IC50) for this entry: CCc1ccccc1Oc1ccc(N2CC[C@H](Oc3ccccn3)C2)c(CCO)c1 [Compound 1-335]
1.82
